# System: metallo-beta-lactamase IMP-1 (Pseudomonas aeruginosa)
# Assay Info: IMP-1 metallo-beta-lactamase inhibitors, primary screen, biochemical, epi-absorbance readout, Pseudomonas aeruginosa enzyme (AID 1556)
# Applied Conditions: purified IMP-1, nitrocefin hydrolysis, epi-absorbance fluorescence; at 5.6 µM
About 1,300 (0.45%) of roughly 290,000 compounds were called active.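 Rule for the calls: active = inhibition above the mean plus 3 SD of all compounds in the same screening run (cut at about 4.5% in these data); inactive = the rest.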 The full list was thinned out, with actives kept by preference.
The categories you may choose from are active, inactive

| Compound | Tested Target | Group |
| --- | --- | --- |
| O=C(COC(=O)c1c2c(nc3ccccc13)/C(=C\c1cccs1)CCC2)Nc1ccccc1Cl | metallo-beta-lactamase IMP-1 (Pseudomonas aeruginosa) | inactive |
| COc1ccc(C2=NS(=O)(=O)N(C)C(C(=O)N3CCCCC3)=C2)cc1 | metallo-beta-lactamase IMP-1 (Pseudomonas aeruginosa) | inactive |
| C=CCn1c(=O)c(C(=O)Nc2ncccc2O)c(O)c2ccccc21 | metallo-beta-lactamase IMP-1 (Pseudomonas aeruginosa) | inactive |
| COc1ccc(C(=O)NN2C(=O)C3C(c4ccccc4)C=CC(c4ccccc4)C3C2=O)cc1 (stereo not given) | metallo-beta-lactamase IMP-1 (Pseudomonas aeruginosa) | active |
| Cc1cccc(N2CCN(C(=O)c3cccc(N4C(=O)C5C6C=CC(C6)C5C4=O)c3)CC2)c1C (stereo not given) | metallo-beta-lactamase IMP-1 (Pseudomonas aeruginosa) | inactive |
| Cc1ccccc1CNC(=O)CCC(=O)N1Cc2ccccc2Oc2ncccc21 | metallo-beta-lactamase IMP-1 (Pseudomonas aeruginosa) | inactive |

Next:
Please state the recorded outcome for this compound: "COc1cc(-c2cc(C(=O)OCC(=O)Nc3ccc4c(c3)OCO4)c3ccccc3n2)cc(OC)c1OC"
inactive
